- Tested on: E. coli
- Format: cell-based
- test-parameters: with 10^9 human RBC/ml; Table 2
Square brackets hold non-standard residues; d marks the D form. Peptide text beside a SMILES is read from it. d(hArg) = N=C(N)NCCCC[C@@H](N)C(=O)O
# MIC, E. coli, 10^9 cells/ml RBC per entry

1. CC(C)C[C@@H]1NC(=O)[C@H](CCCNC(=N)N)NC(=O)[C@H](CCCNC(=N)N)NC(=O)[C@H](C)NC(=O)[C@H](Cc2c[nH]c3ccccc23)NC(=O)[C@H](CCCNC(=N)N)NC(=O)[C@H](CCCNC(=N)N)NC(=O)[C@H](CCCNC(=N)N)NC(=O)[C@H](CCCNC(=N)N)NC(=O)[C@H](Cc2ccccc2)NC(=O)[C@H](C)NC(=O)[C@H](Cc2ccccc2)NC(=O)[C@H](C)NC1=O [CYCLIZED-L-CONGA-OH] (cyclo(RRWARRLAFAFRR)) = 13.3 μM

## Task For the molecule CC(C)C[C@H](NC(=O)[C@H](CCCNC(=N)N)NC(=O)[C@H](CCCNC(=N)N)NC(=O)[C@H](C)NC(=O)[C@H](Cc1c[nH]c2ccccc12)NC(=O)[C@H](CCCNC(=N)N)NC(=O)[C@H](N)CCCNC(=N)N)C(=O)N[C@@H](C)C(=O)N[C@@H](Cc1ccccc1)C(=O)N[C@@H](C)C(=O)N[C@@H](Cc1ccccc1)C(=O)N[C@@H](CCCNC(=N)N)C(=O)N[C@H](CCCNC(=N)N)C(N)=O [L-CONGA-D(R1, R13)] (H-[dR]RWARRLAFAFR[dR]-NH2) , what MIC, E. coli, 10^9 cells/ml RBC is on record?
## Result 26.2 μM

## Task For the molecule CC(C)C[C@@H](NC(=O)[C@@H](CCCCNC(=N)N)NC(=O)[C@@H](CCCCNC(=N)N)NC(=O)[C@@H](C)NC(=O)[C@@H](Cc1c[nH]c2ccccc12)NC(=O)[C@@H](CCCNC(=N)N)NC(=O)[C@H](N)CCCNC(=N)N)C(=O)N[C@H](C)C(=O)N[C@H](Cc1ccccc1)C(=O)N[C@H](C)C(=O)N[C@H](Cc1ccccc1)C(=O)N[C@H](CCCNC(=N)N)C(=O)N[C@H](CCCNC(=N)N)C(N)=O [D-CONGA-HomoR, rrwa (homo r, homo r)lafafrr] (H-[dR][dR][dW][dA][d(hArg)][d(hArg)][dL][dA][dF][dA][dF][dR][dR]-NH2) , what MIC, E. coli, 10^9 cells/ml RBC is on record?
## Result 2.2 μM

----------
- System: S. aureus
- Format: cell-based
- test-parameters: no RBC; Table 2
Square brackets hold non-standard residues; d marks the D form. Peptide text beside a SMILES is read from it.
assay-metric: MIC, S. aureus, No RBC (µM)
Unit µM implied. Number only.

1. CC(C)C[C@@H](NC(=O)[C@@H](CCCNC(=N)N)NC(=O)[C@@H](CCCNC(=N)N)NC(=O)[C@@H](C)NC(=O)[C@@H](Cc1c[nH]c2ccccc12)NC(=O)[C@@H](CCCNC(=N)N)NC(=O)[C@H](N)CCCNC(=N)N)C(=O)N[C@H](C)C(=O)N[C@H](Cc1ccccc1)C(=O)N[C@H](C)C(=O)N[C@H](Cc1ccccc1)C(=O)N[C@H](CCCNC(=N)N)C(N)=O [D-CONGA-ΔR13, rrwarrlafafr (All D)] (H-[dR][dR][dW][dA][dR][dR][dL][dA][dF][dA][dF][dR]-NH2) = 27

## Task For the compound CC(C)C[C@@H](NC(=O)[C@@H](CCCNC(=N)N)NC(=O)[C@H](CCCNC(=N)N)NC(=O)[C@@H](C)NC(=O)[C@@H](Cc1c[nH]c2ccccc12)NC(=O)[C@@H](CCCNC(=N)N)NC(=O)[C@H](N)CCCNC(=N)N)C(=O)N[C@H](C)C(=O)N[C@H](Cc1ccccc1)C(=O)N[C@@H](C)C(=O)N[C@H](Cc1ccccc1)C(=O)N[C@H](CCCNC(=N)N)C(=O)N[C@H](CCCNC(=N)N)C(N)=O [D-CONGA-L(R5, A10), rrwaRrlafAfrr] (H-[dR][dR][dW][dA]R[dR][dL][dA][dF]A[dF][dR][dR]-NH2) , what MIC, S. aureus, No RBC is on record?
## Result 30

----------
- System: human RBCs
- measurement-notes: Hemolysis of human RBCs
- Assay type: cell-based
Square brackets hold non-standard residues; d marks the D form. Peptide text beside a SMILES is read from it.
# Hemolysis at 100 μM per entry
Please state the value as a number alone, without comment.

1. CC(C)C[C@@H](NC(=O)[C@@H](CCCNC(=N)N)NC(=O)[C@@H](CCCNC(=N)N)NC(=O)[C@@H](C)NC(=O)[C@@H](Cc1c[nH]c2ccccc12)NC(=O)[C@@H](CCCNC(=N)N)NC(=O)[C@H](N)CCCNC(=N)N)C(=O)N[C@H](C)C(=O)N[C@H](Cc1ccccc1)C(=O)N[C@H](C)C(=O)N[C@H](Cc1ccccc1)C(=O)N[C@H](CCCNC(=N)N)C(N)=O [D-CONGA-ΔR13, rrwarrlafafr (All D)] (H-[dR][dR][dW][dA][dR][dR][dL][dA][dF][dA][dF][dR]-NH2) = 0.03
2. CC(C)C[C@@H](NC(=O)[C@@H](CCCNC(=N)N)NC(=O)[C@@H](CCCNC(=N)N)NC(=O)[C@@H](C)NC(=O)[C@@H](Cc1c[nH]c2ccccc12)NC(=O)[C@@H](CCCNC(=N)N)NC(=O)[C@H](N)CCCNC(=N)N)C(=O)N[C@H](C)C(=O)N[C@H](Cc1ccccc1)C(=O)N[C@H](C)C(=O)N[C@H](Cc1ccccc1)C(=O)N[C@H](CCCNC(=N)N)C(=O)N[C@H](CCCNC(=N)N)C(N)=O [D-CONGA, rrwarrlafafrr (All D), reference compound] (H-[dR][dR][dW][dA][dR][dR][dL][dA][dF][dA][dF][dR][dR]-NH2) = 0.06

Now look at this one.
## Task For the compound CC(C)C[C@@H](NC(=O)[C@@H](CCCNC(=N)N)NC(=O)[C@@H](CCCNC(=N)N)NC(=O)[C@@H](C)NC(=O)[C@@H](Cc1c[nH]c2ccccc12)NC(=O)[C@@H](CCCNC(=N)N)NC(=O)[C@H](N)CCCNC(=N)N)C(=O)N[C@H](C)C(=O)N[C@H](Cc1ccccc1)C(=O)N[C@H](Cc1ccccc1)C(=O)N[C@H](CCCNC(=N)N)C(=O)N[C@H](CCCNC(=N)N)C(N)=O [D-CONGA-ΔA10, rrwarrlaffrr (All D)] (H-[dR][dR][dW][dA][dR][dR][dL][dA][dF][dF][dR][dR]-NH2) , what Hemolysis at 100 μM is on record?
## Result 0.02

----------
- System: human RBCs
- measurement-notes: Hemolysis of human RBCs
- Format: cell-based
- Method: Peptide variants of D-CONGA (SEQ ID NO: 1) were tested for activity against E. coli, K. pneumoniae, and S. aureus. Minimum Inhibitory Concentrations (MIC) were measured in 96-well plates by broth dilution. […] Hemolysis was measured by incubating 1×10^8 human RBCs with serially diluted peptide for 30 minutes followed by centrifugation of the cells and measurements of the released hemoglobin in the supernatant by absorbance at 410 nm. […]
Square brackets hold non-standard residues; d marks the D form. Peptide text beside a SMILES is read from it.
assay-metric: Hemolysis at 100 μM
Please state the value as a number alone, without comment.

## Task For the compound CC(C)C[C@@H](NC(=O)CNC(=O)[C@@H](CCCNC(=N)N)NC(=O)[C@@H](CCCNC(=N)N)NC(=O)[C@@H](C)NC(=O)[C@@H](Cc1c[nH]c2ccccc12)NC(=O)[C@@H](CCCNC(=N)N)NC(=O)[C@H](N)CCCNC(=N)N)C(=O)N[C@H](C)C(=O)N[C@H](Cc1ccccc1)C(=O)N[C@H](C)C(=O)N[C@H](Cc1ccccc1)C(=O)N[C@H](CCCNC(=N)N)C(=O)N[C@H](CCCNC(=N)N)C(N)=O [D-CONGA-G7, rrwarrglafafrr (All D)] (H-[dR][dR][dW][dA][dR][dR]G[dL][dA][dF][dA][dF][dR][dR]-NH2) , what Hemolysis at 100 μM is on record?
## Result 0.07

----------
- Tested on: human RBCs
- measurement-notes: Hemolysis of human RBCs
- Format: cell-based
Square brackets hold non-standard residues; d marks the D form. Peptide text beside a SMILES is read from it. d(hArg) = N=C(N)NCCCC[C@@H](N)C(=O)O
assay-metric: Hemolysis at 100 μM
Please state the value as a number alone, without comment.

1) CC(C)C[C@@H](NC(=O)[C@@H](CCCCNC(=N)N)NC(=O)[C@@H](CCCCNC(=N)N)NC(=O)[C@@H](C)NC(=O)[C@@H](Cc1c[nH]c2ccccc12)NC(=O)[C@@H](CCCNC(=N)N)NC(=O)[C@H](N)CCCNC(=N)N)C(=O)N[C@H](C)C(=O)N[C@H](Cc1ccccc1)C(=O)N[C@H](C)C(=O)N[C@H](Cc1ccccc1)C(=O)N[C@H](CCCNC(=N)N)C(=O)N[C@H](CCCNC(=N)N)C(N)=O [D-CONGA-HomoR, rrwa (homo r, homo r)lafafrr] (H-[dR][dR][dW][dA][d(hArg)][d(hArg)][dL][dA][dF][dA][dF][dR][dR]-NH2) = 0.06

Now look at this one.
## Task For the compound CC(C)C[C@@H](NC(=O)[C@@H](CCCNC(=N)N)NC(=O)[C@H](N)CCCNC(=N)N)C(=O)N[C@H](C)C(=O)N[C@H](Cc1ccccc1)C(=O)N[C@H](C)C(=O)N[C@H](Cc1ccccc1)C(=O)N[C@H](Cc1c[nH]c2ccccc12)C(=O)N[C@H](C)C(=O)N[C@H](CCCNC(=N)N)C(=O)N[C@H](CCCNC(=N)N)C(=O)N[C@H](CCCNC(=N)N)C(=O)N[C@H](CCCNC(=N)N)C(N)=O [D-CONGA-FLIP, rrlafafwarrrr (All D)] (H-[dR][dR][dL][dA][dF][dA][dF][dW][dA][dR][dR][dR][dR]-NH2) , what Hemolysis at 100 μM is on record?
## Result 0.05
